Where do these numbers come from? They come from patent US12390440B2.

Examples of compounds with documented MIC follow.
system: P. multocida; assay: MIC, P. multocida; details: Pasteurella multocida, P. multocida 46572, murine efficacy challenge strain
readout_name: MIC

compound | readout_value
CC[C@H]1OC(=O)[C@H](C)[C@@H](O[C@H]2C[C@@](C)(OC)[C@](O)(CN3CCOCC3)[C@H](C)O2)[C@H](C)[C@@H](O[C@@H]2O[C@H](C)C[C@H]3[C@H]2OC(C(F)(F)F)N3C)[C@](C)(O)C[C@@H](C)CN[C@H](C)[C@@H](O)[C@]1(C)O (some centres unmarked) | > 64 µg/mL
CC[C@H]1OC(=O)[C@H](C)[C@@H](O[C@H]2C[C@@](C)(OC)[C@](O)(CNCCN3CCCC3=O)[C@H](C)O2)[C@H](C)[C@@H](O[C@@H]2O[C@H](C)C[C@H]3[C@H]2OC(C(F)(F)F)N3C)[C@](C)(O)C[C@@H](C)CN[C@H](C)[C@@H](O)[C@]1(C)O (some centres unmarked) | > 64 µg/mL
